Ref: patent US20230220589A1

- ASSAYED_SYSTEM: M44-modified F NTAA target peptides (M44-F-P2-peptide)
- ASSAY_NOTES: Gini coefficient of P1 selectivity from multiplex encoding heatmap
# binarize P1 score: threshold 0.2 inclusive, high side 1, low side 0

Record excerpt, results attached:
1. SEQ ID NO 30 (designed binder, not shown: small tags and cut ends; large carriers) QDSTQNLIPAPPLISVPLQPGFWTERFQGRWFNVGIAGNAVQKERQSRFTMLSLISELQEDNSYNWTLISVRGQGCRYRILTWVPSSRPGQFTLGNIHSYPQIQSLDVQVADTDYDQFAMVFAQGTSENKQYFEVILMGRTKGLSDELKERFVSFAKSLGLKDNNIVFSVPTDQCIDN = 1
2. SEQ ID NO 44 (designed binder, not shown: small tags and cut ends; large carriers) TVPDRSEIAGKWYVVALASNTEFFLREKDRIKTAMARISFLGEDELKVSLARPAPNGCHKAEWTFKKTSDDGEVYTSFLAKFKVEVLDTDYKSYAVIYATPVKDGRTRHEMLLYSRSPEVSPAATAIFRKLAGERNYTDEMVAMLPRQEECTVDEV = 1
3. SEQ ID NO 43 (designed binder, not shown: small tags and cut ends; large carriers) TVPDRSEIAGKWYVVALASNTEFVLREKDWLKLAMARISFLGEDELKVSMTTPGPNGCTKWERTLKKTSDDGEVYSSPRAKEKVEVLDTDYKSYAVIYATAVKDGRTLHEMWLYSRSPEVSPAATAIFRKLAGERNYTDEMVAMLPRQEECTVDEV = 1
4. SEQ ID NO 32 (designed binder, not shown: small tags and cut ends; large carriers) QDSTQNLIPAPPLISVPLQPGFWTERFQGRWFSVGMAGNAVQKERQSRFTMGSCIMELQEDNSYNLTFIGVRGQGCRYRILTWVPSSRPGQFTLGNIHSYPQIQSADVQVADTDYDQFAMVFWQTTSENKQYFAVELWGRTKGLSDELKERFVSFAKSLGLKDNNIVFSVPTDQCIDN = 0

# evaluate next
[Q] Textbook exercise: given the entry SEQ ID NO 23 (designed binder, not shown: small tags and cut ends; large carriers) QVSVQPNFQQDKFLGRWFLAGAASNSSWLREKNAALSYAKLVVAPATDGGLNSTVTRLRKNQCETETRLLQPAGSLGSYSWRSPHLGSTLSLSVVETDYDQYALVYAQGSKGPGEDVRGAELLSRTQTPRAELKEKFTAFSKAQGFTEDTIVFLPQTDKCMTEQ , state whether its P1 score is greater than or equal to 0.2.
[A] 1
